- Method description: Clearance in ICR mouse at 2 mg/kg, iv measured after 24 hrs
- Assay type: ADME, organism-based
- Assay conditions: in vivo
Experimental readout: clearance (mL/min/kg)
Express it in mL/min/kg; write the number only.

Consider the compound COc1cccc([C@@]2(O)CC[C@H](N(Cc3ccccc3)S(=O)(=O)c3cccc(Cl)c3)C[C@@H]2CN(C)C)c1.Cl and give its recorded clearance. 246

---

- Method description: Metabolic stability in mouse liver microsomes assessed as parent compound remaining at 1 uM measured after 60 min in presence of NADPH by LC-MS/MS analysis
- Format: ADME, Microsome
- Assay conditions: read-out: Stability
Experimental readout: remaining at 1 h, 1 µM (%)
Write the value in % as a bare number.

Look up and state reported remaining at 1 h, 1 µM for COc1cccc([C@@]2(O)CC[C@H](N(Cc3ccccc3)S(=O)(=O)c3cccc(Cl)c3)C[C@@H]2CN(C)C)c1.Cl 4.59
